These measurements were taken from patent US7662824B2.

studyTarget: c-Met (Homo sapiens)
protocolSummary: Delfia autophosphorylation kinase assay on the c-Met
Format: biochemical
Set-up: The purified His6 tagged cytoplasmic domain of c-Met was diluted to a concentration of 500 ng/ml; made in house; host or cells: Sf9 insect cells with recombinant baculovirus; Large-scale expression and purification were done by the contract lab Pan Vera
testContext: His6 tagged cytoplasmic domain of c-Met, 1 μM ATP; read-out: c-Met Delfia Autophos IC50
measuredMetric: IC50 (nM)

P: O=C(Cc1ccc2c(c1)CCO2)N/N=C1\C(=O)Nc2cc(C(=O)NCCCO)cc(Br)c21 [Example 15]
Q: CN(C)CCCNC(=O)c1cc(Br)c2c(c1)NC(=O)/C2=N\NC(=O)Cc1ccc2c(c1)CCO2 [Example 9]
R: O=C(Cc1ccc2c(c1)CCO2)N/N=C1\C(=O)Nc2cc(C(=O)NCCCN3CCC(O)CC3)cc(Br)c21 [Example 12]
Could you list the above molecules by IC50, going from the biggest number down? Provide the ranking by listing each label in its place in the requested order.
Q, R, P
(Q: 5 nM, R: 2 nM, P: 1 nM)

* * *

protocolSummary: Aqueous solubility assay
testContext: water with 0.4% DMSO, kinetic from dmso stock
measuredMetric: solubility at 15 min (µM)

> print(dat)
                                 itemsmiles  measurement
1  CN1CCN(C(=O)c2cc(Br)c3c(c2)NC(=O)/C3=N\NC(=O)Cc2ccc3c(c2)CCO3)CC1         43.9
2  O=C(Cc1ccc2c(c1)CCO2)N/N=C1\C(=O)Nc2cc(C(=O)NCCN3CCOCC3)cc(Br)c21           44
3  CN1CCN(CCCNC(=O)c2cc(Br)c3c(c2)NC(=O)/C3=N\NC(=O)Cc2ccc3c(c2)CCO3)CC1         38.8
4  CN(C)CCNC(=O)c1cc(Br)c2c(c1)NC(=O)/C2=N\NC(=O)Cc1ccc2c(c1)CCO2         41.1
5  O=C(Cc1ccc2c(c1)CCO2)N/N=C1\C(=O)Nc2cc(C(=O)NCCN3CCOCC3)ccc21         38.1
6  CN1CCN(CCCNC(=O)c2ccc3c(c2)NC(=O)/C3=N\NC(=O)Cc2ccc3c(c2)CCO3)CC1         37.9

* * *

studyTarget: c-Met (Homo sapiens, UniProt P08581)
Sequence (P08581 956-1390 limits assumed): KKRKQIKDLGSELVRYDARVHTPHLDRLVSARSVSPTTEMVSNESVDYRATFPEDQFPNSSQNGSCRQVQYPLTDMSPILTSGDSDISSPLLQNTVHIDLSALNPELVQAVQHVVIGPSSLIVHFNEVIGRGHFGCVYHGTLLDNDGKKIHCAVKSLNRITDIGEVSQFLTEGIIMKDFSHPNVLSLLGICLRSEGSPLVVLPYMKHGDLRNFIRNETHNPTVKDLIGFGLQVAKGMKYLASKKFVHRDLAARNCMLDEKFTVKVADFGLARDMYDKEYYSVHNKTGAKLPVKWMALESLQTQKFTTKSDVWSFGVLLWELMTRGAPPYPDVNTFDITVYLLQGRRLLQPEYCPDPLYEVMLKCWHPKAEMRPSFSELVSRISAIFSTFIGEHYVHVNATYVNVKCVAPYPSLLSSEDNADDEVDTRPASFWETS
protocolSummary: Delfia autophosphorylation kinase assay on the c-Met
Format: biochemical
Design: The purified His6 tagged cytoplasmic domain of c-Met was diluted to a concentration of 500 ng/ml; made in house; host or cells: Sf9 insect cells with recombinant baculovirus; Large-scale expression and purification were done by the contract lab Pan Vera
testContext: His6 tagged cytoplasmic domain of c-Met, 1 μM ATP; read-out: c-Met Delfia Autophos IC50
pIC50: −log10 of the molar value. Structures can show the parent of a compound that is named as a salt.
measuredMetric: pIC50

> print(dat)
                                   molecule  measuredmetric  measurement
1  O=C(Cc1ccc2c(c1)CCO2)N/N=C1\C(=O)Nc2cc(C(=O)NCCN3CCOCC3)ccc21 [Example 3]           pIC50         7.62
2  CN1CCN(C(=O)c2cc(Br)c3c(c2)NC(=O)/C3=N\NC(=O)Cc2ccc3c(c2)CCO3)CC1 [Example 2]           pIC50         8.00
3  CN1CCN(C(=O)c2cc(Br)c3c(c2)NC(=O)/C3=N\NC(=O)Cc2ccc3sccc3c2)CC1 [Example 18, hydrochloride]           pIC50         5.33
4  CN(C)CCCNC(=O)c1cc(Br)c2c(c1)NC(=O)/C2=N\NC(=O)Cc1ccc2occc2c1 [Example 14]           pIC50         8.80
5  CN1CCN(CCCNC(=O)c2cc(Br)c3c(c2)NC(=O)/C3=N\NC(=O)Cc2ccc3c(c2)CCO3)CC1 [Example 5]           pIC50         9.00

I: O=C(Cc1ccc2c(c1)CCO2)N/N=C1\C(=O)Nc2cc(C(=O)NCCCN3CCC[C@@H]3CO)cc(Br)c21 [Example 11]
II: CN(C)CCNC(=O)c1cc(Br)c2c(c1)NC(=O)/C2=N\NC(=O)Cc1ccc2c(c1)CCO2 [Example 8]
Of the two listed items, I and II , which carries the larger pIC50 figure? Choose, then provide that item's label.
I

A: CN1CCN(C(=O)c2cc(Br)c3c(c2)NC(=O)/C3=N\NC(=O)Cc2ccc3occc3c2)CC1 [Example 16, hydrochloride]
B: CN1CCN(CCCNC(=O)c2ccc3c(c2)NC(=O)/C3=N\NC(=O)Cc2ccc3c(c2)CCO3)CC1 [Example 4]
Of the two listed items, A and B , which carries the larger pIC50 figure? Choose, then provide that item's label.
B
(B: 7.55, A: 7.19)

a: O=C(Cc1ccc2c(c1)CCO2)N/N=C1\C(=O)Nc2cc(C(=O)NCCN3CCOCC3)cc(Br)c21 [Example 6]
b: CN1CCN(C(=O)c2cc(Br)c3c(c2)NC(=O)/C3=N\NC(=O)Cc2ccc3onc(N)c3c2)CC1 [Example 19]
c: CN1CCN(C(=O)c2cc(Br)c3c(c2)NC(=O)/C3=N\NC(=O)Cc2ccc3ocnc3c2)CC1 [Example 17]
d: O=C(Cc1ccc2c(c1)CCO2)N/N=C1\C(=O)Nc2cc(C(=O)NCCCN3CC[C@@H](O)C3)cc(Br)c21 [Example 10]
# sort list by recorded pIC50, greatest to least Provide the ranking by listing each label in its place in the requested order.
d, a, b, c

P: O=C(Cc1ccc2c(c1)CCO2)N/N=C1/C(=O)Nc2cc(C(=O)NCCCN3CCC[C@H]3CO)cc(Br)c21 [Example 1]
Q: O=C(Cc1ccc2c(c1)CCO2)N/N=C1\C(=O)Nc2cc(C(=O)NCCCN3CC[C@H](O)C3)cc(Br)c21 [Example 13]
Of the two listed items, P and Q , which carries the larger pIC50 figure? Choose, then provide that item's label.
Q
